# Test system: HT29 colon
# experiment: NCI-60 one-dose screen, 48 h (100 = growth as untreated, 0 = no growth, -100 = all killed)
# experimental.context: 10 µM unless noted
Compounds without any hit were thinned out: in the full panel of roughly 83,000, 20% have a hit.
metric: growth (%)

1. O=C1NCCN1/N=C/c1c(Cl)n(Cc2ccc(Cl)cc2)c2ccccc12; 111
2. CCOC(=O)CCC(=O)P(=O)(O)O; 95.9
3. C=CC(=O)NCc1cccc(Nc2ncc(Br)c(NCCCNC(=O)C3CCC3)n2)c1; -18.2
4. CN1CCN(Cc2ccc(NC(=O)c3cc(C#Cc4cnc(N)c5ncccc45)n(C)n3)cc2C(F)(F)F)CC1; 91.4
5. CCN1CCN(c2cc(C(=O)Nc3cccc(Nc4ccc5c(OC)cccc5n4)c3)cc(C(F)(F)F)c2)CC1; -60
6. O=c1cc(-c2nccc3c2[nH]c2ccccc23)c2cc(Cl)ccc2o1; 7.6
7. Nc1ccc(N)c2c1C(=O)c1cccc([N+](=O)[O-])c1C2=O; 44.7
8. Cc1cc(C)n(C(=O)CSc2nc3sc4c(c3c(=O)n2-c2ccccc2)CCCCC4)n1; 105
9. CC(C)n1cc(C2=C(c3cccc4ccccc34)C(=O)NC2=O)c2cc(Br)ccc21; 43.1
10. O=[N+]([O-])c1ccc(N/N=C\c2cc(Cl)ccc2O)nc1; 50.9
11. CC(C)(C)n1cc(-c2ccnc(NCCNS(=O)(=O)c3cccc4ccccc34)c2)c(-c2cccc(O)c2)n1; 6.71
12. CO[C@H]1/C=C/O[C@@]2(C)Oc3c(C)c(O)c4c(O)c(c5c(nc6cc(C)ccn65)c4c3C2=O)NC(=O)/C(C)=C\C=C\[C@H](C)[C@H](O)[C@@H](C)C(O)[C@@H](C)[C@H](OC(C)=O)[C@@H]1C (stereo partly drawn); 96.7
13. O=C(CSc1nc(-c2ccccc2)cn1-c1ccc(Cl)cc1)c1ccc([N+](=O)[O-])cc1; 56.1
14. Nc1ccc(Cl)c2c(=O)c3ccccc3[nH]c12; 100
15. COc1c(O[C@@H]2OC(CO)[C@H](O)[C@H](O)C2O)cc2oc3cc(O)c(CC=C(C)C)c(O)c3c(=O)c2c1CC=C(C)C (stereo partly drawn); 93.6
16. O=C(/C=C/c1ccco1)Nc1ncc(Cc2ccc(F)cc2)s1; 7.2
17. C=CCn1c(SCC(=O)Nc2ccc(C(=O)/C=C/c3ccc(Cl)cc3)cc2)nnc1-c1ccc(Cl)c(Cl)c1; 71.6
18. Cc1ccc(C(F)(F)F)cc1N1CCN(C(=O)[C@H]2C[C@H]2c2ccc(C(F)(F)F)nc2)CC1; 79.8

Just for reference, PubChem BioAssay (NCI) is where these values come from.
